This collection of values is drawn from paper PMC12155096.

Listing of recorded IC50 by entry.
Biological target: human CYP2C9 (Homo sapiens)
Sequence (P11712 whole entry): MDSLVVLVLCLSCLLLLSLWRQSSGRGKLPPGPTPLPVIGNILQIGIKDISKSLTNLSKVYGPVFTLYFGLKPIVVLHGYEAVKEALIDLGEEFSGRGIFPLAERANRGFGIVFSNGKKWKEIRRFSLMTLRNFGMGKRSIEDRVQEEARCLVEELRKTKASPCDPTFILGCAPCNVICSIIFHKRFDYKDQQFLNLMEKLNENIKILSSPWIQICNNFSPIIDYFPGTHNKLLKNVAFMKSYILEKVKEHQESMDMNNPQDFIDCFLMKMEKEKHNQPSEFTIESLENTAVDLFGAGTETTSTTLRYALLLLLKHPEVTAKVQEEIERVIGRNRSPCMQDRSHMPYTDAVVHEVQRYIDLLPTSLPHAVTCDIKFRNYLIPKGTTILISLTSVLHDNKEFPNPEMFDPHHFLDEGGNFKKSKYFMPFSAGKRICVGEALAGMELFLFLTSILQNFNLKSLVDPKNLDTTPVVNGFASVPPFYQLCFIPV
Test: biochemical
Settings: CYP2C9 IC50
Where a name gives a salt, the structure may show the parent alone.
Give just the number in µM; leave the unit off.

c1cc2ccc3cccc4ccc(c1)c2c34 [Pyrene]	60.5
Cc1ccc2cc3c(ccc4ccccc43)c3c2c1CC3 [3-Methylcholanthrene]	6.43
Cc1cccc(Cc2c[nH]cn2)c1C [Detomidine hydrochloride]	0.41
Nc1ccc2c3c(cccc13)-c1ccccc1-2 [3-Aminofluoranthene]	34.7
CS(=O)(=O)c1ccc(-c2cn3ccccc3n2)cc1 [Zolimidine]	24.1

# value of IC50, human CYP2C9 (Homo sapiens), item [O-][n+]1ccccc1SSc1cccc[n+]1[O-] [Dipyrithione] = 1.72

Response field IC50 (human CYP2C9 (Homo sapiens)) for item CCN(CC)C(=O)[C@@H]1C=C2c3cccc4[nH]cc(c34)C[C@H]2N(C)C1 [Lysergide] : 72.9
